System: A549
ASSAY_METHOD_TEXT: NCI tumour cell line growth inhibition, 48 h
Activity calls are given as the source filed them. Rule as the data show it: active = GI50 up to about 1.1 µM and inactive = higher.
RECORDED_METRIC: GI50

>>> measured_value("CCOP(=O)(CCC(O)CNc1nc(N)nc(Cl)c1/N=N/c1ccc(Cl)cc1)OCC (centres undefined)")
"14.5 µM (inactive)"

Any idea what GI50 was measured for NC(=S)N/N=C1/CN(c2ccc(Cl)c(Cl)c2)CC(=O)C1c1nc2ccccc2s1 (centres undefined) ?
> 100 µM (inactive)

Any idea what GI50 was measured for "O=P(O)(O)CN1CCNCCN(CP(=O)(O)O)CCNCC1" ?
8.22 µM (inactive)

Any idea what GI50 was measured for CSc1nc(NC2OCC(OC(C)=O)C(OC(C)=O)C2OC(C)=O)c(/N=C\C=N\c2c(NC3OCC(OC(C)=O)C(OC(C)=O)C3OC(C)=O)nc(SC)[nH]c2=O)c(=O)[nH]1 (centres undefined) ?
> 100 µM (inactive)

Any idea what GI50 was measured for O=C1N(c2ccc(Cl)cc2)C(=O)C2(SC=NN2Cc2ccccc2)N1c1ccc(Cl)cc1 (centres undefined) ?
96.4 µM (inactive)

Any idea what GI50 was measured for "O=c1/c(=C/c2ccc([N+](=O)[O-])o2)sc2n1[C@@H](c1ccc(Cl)cc1)C=C(c1cc(F)c(Cl)cc1Cl)N=2" ?
30.3 µM (inactive)

Any idea what GI50 was measured for COc1ccc(C2=NN(C(=N)S)C(c3ccccc3)C2)cc1 (centres undefined) ?
34.8 µM (inactive)

Any idea what GI50 was measured for "COC(=O)c1c(C(=O)OC)c(C(c2ccccc2)c2ccccc2)n(-c2ccccc2)c1Cl" ?
7.03 µM (inactive)

Any idea what GI50 was measured for "Cc1cc(O)c2c(=O)c3ccccc3[nH]c2c1" ?
29.4 µM (inactive)

====

Test system: SW-620
ASSAY_METHOD_TEXT: NCI tumour cell line growth inhibition, 48 h
Calls of active or inactive are those of the source. Rule as the data show it: active = GI50 up to about 1.1 µM and inactive = higher.
Hi! Could you answer with just one of these? active, inactive

Which outcome was assigned to "O=C(O)CNS(=O)(=O)c1ccc(NC(=O)c2ccccc2[N+](=O)[O-])cc1" in this test?
inactive

====

System: SK-MEL-28
ASSAY_METHOD_TEXT: NCI tumour cell line growth inhibition, 48 h
Activity calls are given as the source filed them. Cut-off read from the data, not from the text of the source: active = GI50 up to about 1.1 µM and inactive = higher.
RECORDED_METRIC: GI50

>>> measured_value("CCCC1(N)CC(OC)OC(C)C1O (stereo not given)")
"> 100 µM (inactive)"
>>> measured_value("Cc1ccc(S(=O)(=O)NNCNC(=O)c2ccccc2)cc1")
"> 100 µM (inactive)"
>>> measured_value("O=c1[nH]nc(N/N=C\\c2ccc(Cl)cc2)c2ccccc12")
"23.3 µM (inactive)"

Below: the item to evaluate.
Enter reported GI50 observed with SK-MEL-28 for CCCCCCCCCCCCCCCC1(OC)C[N+](C)(C)CCO1 (stereo not given)
2.37 µM (inactive)

====

Tested on: K562
ASSAY_METHOD_TEXT: NCI tumour cell line growth inhibition, 48 h
Activity calls are given as the source filed them. No stated cut-off is given here; in the data, active = GI50 up to about 1.1 µM and inactive = higher.
GI50 reference

>>> measured_value("CN(/N=C/c1ccccc1O)c1ccc2ccccc2n1")
"60.3 µM (inactive)"
>>> measured_value("NC12CCC(CC1=O)C2 (stereo not given)")
"> 100 µM (inactive)"
>>> measured_value("NC12CC3CC4C1CC1CC2C(C3)C4(N)C1")
"> 100 µM (inactive)"
>>> measured_value("CCOC(=O)c1cnc2oc3ccc(O)cc3c2c1-c1ccccc1")
"17.6 µM (inactive)"
>>> measured_value("C[C@H]1C2Cc3cc(O)ccc3[C@@]1(C)CCN2CCc1ccc(N)cc1")
"22.3 µM (inactive)"

Below: the item to evaluate.
Any idea what GI50 was measured for CC(=O)OCC1OC(n2c(-c3ccc(C)cc3)cc(-c3ccccc3)c(C#N)c2=S)C(OC(C)=O)C(OC(C)=O)C1OC(C)=O (stereo not given) ?
> 100 µM (inactive)

====

System: DMS-273
ASSAY_METHOD_TEXT: NCI tumour cell line growth inhibition, 48 h
Active and inactive are the calls of the source. No stated cut-off is given here; in the data, active = GI50 up to about 1.1 µM and inactive = higher.
Hi! Could you answer with just one of these? Y = active, N = inactive

Consider the following illustrative entries.
>>> group("COc1ccccc1-c1cc(=O)c2cc(C)c(C)c(C(=O)O)c2o1")
"N"
>>> group("O=S(=O)(c1ccccc1)N1N=C2c3ccccc3CCC[C@H]2C1c1ccccc1 (stereo not given in full)")
"N"
>>> group("Cc1cc(Cl)ccc1NC(=O)C(=O)C(C(=O)c1ccc2ccccc2c1)C1OC(=O)c2ccccc21 (stereo not given)")
"N"
>>> group("ClC(Cl)=C1C(=C(Cl)Cl)C(Cl)(Cl)C1(Cl)Cl")
"N"
>>> group("COc1ccc2c(c1)[C@@H](NC(C)=O)CCc1cc(OC)c(OC)c(OC)c1-2")
"Y"
>>> group("CC(=O)c1cccc(NC(=O)C(=O)C(C(=O)NN)c2ccccc2)c1 (stereo not given)")
"N"

Which outcome was assigned to "O=C1C(=O)N(c2nccs2)C(=O)C(=O)C1c1nc2ccccc2s1" in this test?
N

Which outcome was assigned to "O=C(NCc1ccccc1)c1cc2cc(O)c(O)cc2cn1" in this test?
N

Which outcome was assigned to NC(=S)N/N=C1/CN(c2ccc(Cl)c(Cl)c2)CC(=O)C1c1nc2ccccc2s1 (stereo not given) in this test?
N

Which outcome was assigned to CC(C)C(Sc1nc(-c2ccccc2)c(-c2ccccc2)[nH]1)C(=O)NNC(=S)Nc1ccccc1 (stereo not given) in this test?
N

Which outcome was assigned to "COc1ccc(C[C@H](N)C(=O)N2C[C@H](CO)C[C@H](n3cnc4c(N(C)C)ncnc43)C2)cc1" in this test?
N

Which outcome was assigned to "Cc1c(C(=O)C/C(=N/NC(=O)C[N+](C)(C)C)C(=O)Nc2ccc(Cl)cc2)[n+]([O-])c2ccccc2[n+]1[O-]" in this test?
N

Which outcome was assigned to O=[N+]([O-])c1cc(C2SCc3nc4ccccc4n32)ccc1Cl (stereo not given) in this test?
N

Which outcome was assigned to "O=C(Nc1ccccc1)OCc1nc2c([nH]1)C(=O)C=CC2=O" in this test?
N

Which outcome was assigned to "CC(C)(C)C(=O)Nc1cccc2oc(-c3ccccc3)cc12" in this test?
N

Which outcome was assigned to COc1cc2c(c(OC(C)=O)c1OC(C)=O)-c1ccc(SC)c(=O)cc1C(NC(C)=O)CC2 (stereo not given) in this test?
N

====

Tested on: PC-3
ASSAY_METHOD_TEXT: NCI tumour cell line growth inhibition, 48 h
Active and inactive are the calls of the source. Rule as the data show it: active = GI50 up to about 1.1 µM and inactive = higher.
Hi! Could you answer with just one of these? Y for active, N for inactive

Consider the following illustrative entries.
>>> group("CN(C)c1ccc(/N=N\\c2cccc3ccoc23)cc1")
"N"
>>> group("O=[N+]([O-])c1ccc2c(c1)c(S(=O)(=O)O)cc1nonc12")
"N"
>>> group("CC(C)(C)[Si](C)(C)OC[C@H](/C=C\\CCCC(=O)O)NC1(c2ccccc2)c2ccccc2-c2ccccc21")
"N"
>>> group("COc1ccc(C2C=C(c3ccc4c(c3)OCO4)Oc3c2c(=O)oc2ccccc32)cc1OC (centres undefined)")
"Y"
>>> group("CC(C)(C)CC(C)(C)N/C(N)=N/O")
"N"

Which outcome was assigned to COc1cc([C@@H]2c3cc4c(cc3[C@@H](OC3OC5COC(C)OC5C(OC(=O)CN5CCN(C)CC5)C3OC(=O)CN3CCN(C)CC3)C3COC(=O)[C@@H]32)OCO4)cc(OC)c1OC(=O)CN1CCN(C)CC1 (some centres undefined) in this test?
N

Which outcome was assigned to O=C(O)C1C2CCC(O2)C1C(=O)NCc1cccnc1 (centres undefined) in this test?
N

Which outcome was assigned to CC1CCC2(O)C3(C)CC4(O)OC2(C1O)C1(O)C3(O)C(OC(=O)c2ccc[nH]2)C(O)(C(C)C)C41C (centres undefined) in this test?
N

Which outcome was assigned to "O=C1Nc2cccc(Cl)c2/C1=C\c1c(-c2ccccc2)nc2n1CCS2" in this test?
N

====

Tested on: CCRF-CEM
ASSAY_METHOD_TEXT: NCI tumour cell line growth inhibition, 48 h
Calls of active or inactive are those of the source. Rule as the data show it: active = GI50 up to about 1.1 µM and inactive = higher.
GI50 reference

Some compounds with recorded GI50:
>>> measured_value("C=C1CC[C@]2(C)[C@H](CC[C@@]34C[C@@H](CC[C@H]32)[C@@H](C(=O)O)C4)C1(C)C")
"7.05 µM (inactive)"
>>> measured_value("CSc1nc2c(nc(N)n2C2OC(CO)C(O)C(O)C2O)c(=O)[nH]1 (centres undefined)")
"> 100 µM (inactive)"
>>> measured_value("CCc1nnc2sc(-c3ccc(-c4ccccc4[N+](=O)[O-])o3)nn12")
"26.9 µM (inactive)"

Below: the item to evaluate.
Any idea what GI50 was measured for "C=CCOC(=O)N1c2ccc(O)cc2[C@@]23O[C@@]24[C@@H]1C#C/C=C\C#C[C@]3(O)C(=O)C[C@@H]4C" ?
28.4 µM (inactive)
